B1: tRNA (parent)
chain: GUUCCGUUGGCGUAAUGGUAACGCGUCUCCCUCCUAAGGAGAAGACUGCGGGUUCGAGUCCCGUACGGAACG

# Variants of: B1
# PROTOCOL SUMMARY: yeast fitness relative to wild type (ratio to wild type); higher = fitter; tRNA-Arg(CCU), competitive growth, 37 C, YPD
This sample holds only a part of the variants without activity.
READOUT: yeast fitness

1. C11G C24U U28C C55G; ≤ 0.5
2. C31G A37C G52C C61G C66U; ≤ 0.5
3. C4G C11A A14U C22A C24G; ≤ 0.5
4. G17A C29G A45G C61U; ≤ 0.5
5. C4U A15C C34A G63C; ≤ 0.5
6. C5U U13G C33A A37C A70G; ≤ 0.5
7. U2C U19C A37G C49A C66G; ≤ 0.5
8. U19A U32C C49A; ≤ 0.5
9. C4U G9A C22G A42U G56A; ≤ 0.5
10. U2C U7C U19C C34U G52A U59A; ≤ 0.5
11. G44C C46G C55U; ≤ 0.5
12. U7C C22G C24A G25C C66G; ≤ 0.5
13. G17A C31A C33U U59G A65C; ≤ 0.5
14. A14C C55G G68C; ≤ 0.5
15. C5G A20U A57U; ≤ 0.5
16. U3A C11U U13A G17C G18C A36C; ≤ 0.5
17. C4A A36C A57G A65U; ≤ 0.5
18. G9C G12C C31A A40U; ≤ 0.5
19. C22A G39C A43U U53C U54A; ≤ 0.5
20. C5U C11A A21G A70G; ≤ 0.5
21. G12C C34U C46A; ≤ 0.5
22. G12A C30G A65U; ≤ 0.5
23. C34A U47A C61A; ≤ 0.5
24. U35A; 0.715
25. C4G C5A; 0.765
26. C27G C31G A43C; 0.545
27. G6A U8C A42C A45U A57G A70C; ≤ 0.5
28. U7A U16C G17A C29U C31A G58A; ≤ 0.5
29. U26C G50A; 0.932
30. U3A A36U A57G G63C; 0.681
31. U7C A14U G68A; ≤ 0.5
32. U2C C31G C55U G63A; ≤ 0.5
33. C4U C34G A69C; 0.664
34. G6A A15C U28A C31G U64A C66U G68C; ≤ 0.5
35. G44C G58C; 0.919
36. U3G C30U G48C A65U G68C; ≤ 0.5
37. A14G A21C C30G C55G; 0.533
38. G48A C62G; 0.951
39. U35G G48C C66U; ≤ 0.5
40. G25C G44A A69U; 0.622
41. C5U C27G C46U; 0.753
42. C30G U47A G50C A65G G68C; ≤ 0.5
43. U2A G9A U13A; 0.645
44. G41A U53G U64A; ≤ 0.5
45. G6A C24U; 0.733
46. C62G G63A; 0.796
47. U26G C29A; 0.578
48. C29U C55G A65U; ≤ 0.5
49. U7A G52A; 0.582
50. A14U G25A U35A G39U A65G; ≤ 0.5
51. U26C C30G A43U G50A; ≤ 0.5
52. C4U A45U G68C; 0.7
53. A14G A42G G48C; 0.568
54. G6C G17C C34U C46A U64A; 0.597
55. C11U U28G; 0.792
56. C22A C24G A36G G39C G56A; ≤ 0.5
57. U3C G38C A40G; 0.501
58. C11A C31G A42U C62U U64A; ≤ 0.5
59. C27U A40G U64A; ≤ 0.5
60. A20U C22G G23A A43U G50A; ≤ 0.5
61. C11U A14G A65U G68A; 0.617
62. G12A C27A C29U A36G; ≤ 0.5
63. G38C C60U C66G; ≤ 0.5
64. A14U C34G C49G C66U; ≤ 0.5
65. U2A U13C A20G A21C C34U A36G; ≤ 0.5
66. C29G G38A U53A U64A; ≤ 0.5
67. A40U; 0.988
68. A37U C49A A65U; ≤ 0.5
69. C11G A15U U16C C24G A40G C62U A70C; ≤ 0.5
70. C5G A21G C24U G68A; 0.71
71. C4A A65G; 0.946
72. U26G A36G; 0.914
73. C4G A21G C31G C33G; ≤ 0.5
74. U13C U32C A40G; ≤ 0.5
75. U3C G48A G67C; 0.653
76. G17C U19A C49G A69G; ≤ 0.5
